- ASSAYED_SYSTEM: Gal(b1-3)GlcNAc(a1-3)Gal(b1-4)GlcNAc
- ASSAY_REMARKS: glycan array binding signal (z-score within array); higher = stronger binding
- TEST_SETTINGS: glycan notation: IUPAC condensed, linker removed
Only a selection was taken, and the strongest signals are over-represented in it overall.
MEASUREMENT_KIND: glycan array binding signal (z-score)
Enter a number only.

Reference set, count: 8
BINDER	glycan array binding signal (z-score)
SfaEH (Escherichia coli), Q1RDG5 (protein) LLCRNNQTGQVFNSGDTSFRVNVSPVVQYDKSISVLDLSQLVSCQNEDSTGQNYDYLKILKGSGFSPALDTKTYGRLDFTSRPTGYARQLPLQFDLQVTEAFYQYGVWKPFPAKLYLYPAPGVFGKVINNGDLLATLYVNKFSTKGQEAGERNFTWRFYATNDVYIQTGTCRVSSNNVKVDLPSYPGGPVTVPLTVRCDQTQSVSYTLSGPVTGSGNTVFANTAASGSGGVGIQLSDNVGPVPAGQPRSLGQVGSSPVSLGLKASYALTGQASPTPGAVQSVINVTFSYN	-0.23
Epa12 (Candida glabrata) (protein) MGSSHHHHHHSSGLVPRGSHMLEPDNSLQIFDSFLSNPSKYPLGCSPKITNPKKGLSMELYSYPYRKKGSHPCWDPAYLDPNFPRVGYKKNKLIARVDGVSGDINFNFHPKRQCTPIADYLPPNFNYNEPITTTNFTMLLYGYFKPKVTGLHTFDISADDLLFMNFGAGNAFDCCRRDSTADTFGNYVAWAIWGRRIVRNKLTVRLDKGIYYPLRLFFNNRDYYGQMRLTFKTEHGSERITDFSDYFFSVDDTSEGCPGLITYESECADVKSSTVLETDYITIQAEKE	-0.242
EfCBM33A (Enterococcus faecalis), Q838S1 (protein) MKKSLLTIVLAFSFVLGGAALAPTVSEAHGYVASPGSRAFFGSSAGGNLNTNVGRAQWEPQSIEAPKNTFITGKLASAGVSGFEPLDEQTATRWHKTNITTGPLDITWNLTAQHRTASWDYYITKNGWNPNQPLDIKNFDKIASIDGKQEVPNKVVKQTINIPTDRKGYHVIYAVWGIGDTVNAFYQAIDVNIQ	0.358
Als3-2 (Candida albicans) (protein) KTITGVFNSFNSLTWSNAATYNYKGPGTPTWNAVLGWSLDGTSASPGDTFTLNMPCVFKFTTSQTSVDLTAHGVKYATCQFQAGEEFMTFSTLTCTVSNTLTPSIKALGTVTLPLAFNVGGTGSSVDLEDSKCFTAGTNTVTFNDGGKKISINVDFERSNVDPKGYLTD	-0.203
HA-61200 (Pseudomonas aeruginosa), Q02SP8_PSEAB (protein) MNKCYALVWNVSQGCWNVVSEGSRRRGKPAGAKAAIASVLALLGATALAPAYALPSGGTVVGGSANGEIHLSGGNSLSVNQKVDKLIANWDSFSVAAGERVIFNQPSSSSIALNRVIGTKASDIQGRIDANGQVFLVNPNGVLFGRGAQVNVGGLVASTLDITDAEFNGNSSRYRFTGPSTNGVLNHGGAITAAEGGSIALLGAQVDNRGTVLAQMGGVGLGAGSDLTLNFDGNKLLDIRVDAGVANALASNGGLLKADGGRVLMAARTANALLNTVVNSQGAIEARSLRGKNGRIVLDG	-0.012
Pwp5 ND (Candida glabrata) (protein) MGSSHHHHHHSSGLVPRGSHMASANPVPLTNVCYFPEEYPRQAGFRAITAGLASTILQGSVDELLNYSGLSSLTTQQTTTTTPNFQLPTLPLPTNVYGLTVVPLYLLVQLQGYFVPPVSGQYTFSLENTNDAAIIFFGNPSAFPCGDLSAWPQASADDITVTDGTFPSRTLFLKAGVAYPMRISYYNSLGSGNLAVSFTDPGGTKRTNWNGYIWRYNSCSTCTYT	-0.125
Epa3to2 (Candida glabrata) (protein) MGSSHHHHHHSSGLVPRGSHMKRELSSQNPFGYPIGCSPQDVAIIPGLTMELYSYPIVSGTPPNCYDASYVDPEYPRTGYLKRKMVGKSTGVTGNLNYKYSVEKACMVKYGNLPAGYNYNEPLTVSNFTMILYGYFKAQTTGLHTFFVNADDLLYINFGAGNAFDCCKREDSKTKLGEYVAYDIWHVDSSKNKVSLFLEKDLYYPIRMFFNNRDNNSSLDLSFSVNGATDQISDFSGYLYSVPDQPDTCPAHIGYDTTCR	-0.807
CBM40 CPF071 (Clostridium perfringens) (protein) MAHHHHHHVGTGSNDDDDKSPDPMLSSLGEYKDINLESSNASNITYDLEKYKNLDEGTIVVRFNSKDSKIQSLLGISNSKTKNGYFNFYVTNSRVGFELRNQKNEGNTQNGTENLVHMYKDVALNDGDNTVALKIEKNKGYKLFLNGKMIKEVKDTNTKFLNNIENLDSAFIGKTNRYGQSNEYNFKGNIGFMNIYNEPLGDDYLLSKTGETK	-0.517

Field request: glycan array binding signal (z-score) | item: RBMC2 (Vibrio cholerae) (protein) KISVRSGFAIDAIGASASTLVGGTGGNLNAAVNVKDIKAIDLTWGKYYWGGYHLLALDFRMSNGSVISMGSKNYAYSKQTERFTVPAGSRIKGIKAWTAGWLLDGVQFELA
-0.3
